targetSystem: T1, human C3a receptor (C3aR) (human, UniProt Q16581 1-482)
T1 construct: whole, on cells
T1 sequence (looked up): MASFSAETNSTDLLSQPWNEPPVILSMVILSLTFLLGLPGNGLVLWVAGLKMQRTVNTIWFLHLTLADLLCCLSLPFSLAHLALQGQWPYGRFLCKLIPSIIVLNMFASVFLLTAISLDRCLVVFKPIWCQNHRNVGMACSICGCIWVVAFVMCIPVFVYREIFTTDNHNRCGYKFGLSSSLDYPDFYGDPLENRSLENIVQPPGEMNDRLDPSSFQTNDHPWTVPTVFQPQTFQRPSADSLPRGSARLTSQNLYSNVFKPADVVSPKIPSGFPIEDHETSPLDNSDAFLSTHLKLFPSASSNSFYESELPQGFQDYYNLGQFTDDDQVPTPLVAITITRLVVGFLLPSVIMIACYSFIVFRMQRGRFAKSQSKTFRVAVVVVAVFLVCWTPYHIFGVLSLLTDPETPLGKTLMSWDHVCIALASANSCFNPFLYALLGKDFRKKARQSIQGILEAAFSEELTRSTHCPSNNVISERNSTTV
testSummary: radioligand competition on C3aR-transfected RBL cells (radioligand not given)
pIC50: −log10 of the molar value.

>  <binder>
recombinant C4a (ligand, UniProt P0C0L4 680-756, looked up, domain: C4a; Expressed and purified under non-denaturing conditions) NVNFQKAINEKLGQYASPTAKRCCQDGVTRLPMMRSCEQRAARVQQPDCREPFLSCCQFAESLRKKSRDKGQAGLQR

>  <pIC50>
6.60

$$$$
>  <binder>
recombinant His6-tagged C5a des-Arg^74 (ligand, UniProt P01031 678-750, looked up, domain: C5a des-Arg^74; also called C5adR^74; not shown: His6 tag) TLQKKIEEIAAKYKHSVVKKCCYDGACVNNDETCEQRAARISLGPRCIKAFTECCVVASQLRANISHKDMQLG

>  <pIC50>
5.01

$$$$
>  <binder>
recombinant C4a des-Arg^77 (ligand, UniProt P0C0L4 680-755, looked up, domain: C4a des-Arg^77; Expressed and purified under non-denaturing conditions; also called C4adR^77) NVNFQKAINEKLGQYASPTAKRCCQDGVTRLPMMRSCEQRAARVQQPDCREPFLSCCQFAESLRKKSRDKGQAGLQ

>  <pIC50>
4.00

$$$$
>  <binder>
recombinant His6-tagged C5a (ligand, UniProt P01031 678-751, looked up, domain: C5a; Expressed and purified under denaturing conditions; not shown: His6 tag) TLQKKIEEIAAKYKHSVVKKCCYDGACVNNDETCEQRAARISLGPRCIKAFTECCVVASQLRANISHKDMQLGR

>  <pIC50>
5.54

$$$$
